Could you please report measured IC50 at 4 days for the items listed next?
assay: Cytotoxicity assay (cell survival after 4 days), vector control; type: cell-based; details: human, mock-transduced (vector control) PLB985 cells

Q) Fill blank: measured IC50 at 4 days of the compound O=C1c2c(O)ccc(O)c2C(=O)c2c(NCCNCCO)ccc(NCCNCCO)c21 [MX, mitoxantrone] is ____.
A) ~10 ng/mL

Q) Fill blank: measured IC50 at 4 days of the compound COc1cccc2c1C(=O)c1c(O)c3c(c(O)c1C2=O)C[C@@](O)(C(=O)CO)C[C@@H]3O[C@H]1C[C@H](N)[C@H](O)[C@H](C)O1 [ADR, doxorubicin] is ____.
A) ~8 ng/mL

###

Could you please report measured IC50 at 4 days for the items listed next?
test system: ABCG2-R (wild-type ABCG2); assay: Cytotoxicity assay (cell survival after 4 days), wild-type ABCG2; format: cell-based; details: human, PLB985 cells expressing ABCG2-R (wild-type ABCG2), selected by 10 nM MX

Q) Fill blank: measured IC50 at 4 days of the molecule COc1cccc2c1C(=O)c1c(O)c3c(c(O)c1C2=O)C[C@@](O)(C(=O)CO)C[C@@H]3O[C@H]1C[C@H](N)[C@H](O)[C@H](C)O1 is ____.
A) ~0.02 µg/mL

Q) Fill blank: measured IC50 at 4 days of the molecule O=C1c2c(O)ccc(O)c2C(=O)c2c(NCCNCCO)ccc(NCCNCCO)c21 is ____.
A) 0.03 µg/mL

// data source = patent US20050255084A1
